Molecular target: Lethal(3)malignant brain tumor-like protein 4 (Homo sapiens) (UniProt Q8NA19)
Sequence (whole entry): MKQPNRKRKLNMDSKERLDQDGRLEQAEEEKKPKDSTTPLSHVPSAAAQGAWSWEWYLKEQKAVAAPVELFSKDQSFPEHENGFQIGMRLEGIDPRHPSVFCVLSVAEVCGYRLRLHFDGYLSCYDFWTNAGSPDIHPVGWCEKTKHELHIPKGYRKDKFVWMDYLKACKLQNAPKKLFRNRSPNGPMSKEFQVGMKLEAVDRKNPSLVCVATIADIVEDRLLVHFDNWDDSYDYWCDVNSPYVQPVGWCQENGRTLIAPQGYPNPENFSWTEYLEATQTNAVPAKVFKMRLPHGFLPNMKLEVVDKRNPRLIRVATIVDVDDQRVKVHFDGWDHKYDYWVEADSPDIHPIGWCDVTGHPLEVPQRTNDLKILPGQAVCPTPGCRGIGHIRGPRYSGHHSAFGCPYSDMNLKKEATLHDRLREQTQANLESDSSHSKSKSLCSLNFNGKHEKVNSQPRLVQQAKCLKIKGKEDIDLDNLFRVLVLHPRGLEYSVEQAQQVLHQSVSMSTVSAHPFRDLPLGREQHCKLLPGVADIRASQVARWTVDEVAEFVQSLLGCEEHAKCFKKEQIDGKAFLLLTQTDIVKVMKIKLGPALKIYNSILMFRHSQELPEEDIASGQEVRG
Experiment: Antagonist activity at L3MBTL4 (unknown origin) assessed as inhibition of L3MBTL4/biotinylated H2AK36Me1 peptide interaction at 30 uM after 30 mins by AlphaScreen assay
Calls of active or inactive are those of the source. The calls are words filed in the database; no cut-off is given here.
readout: inhibition

Example cases with answers are listed next.
> print(dat)
                                   molecule  measurement
1    O=S(=O)(c1cccc(Br)c1)N1CCC(N2CCCC2)CC1           6%
2  CC(c1cccc(Br)c1)N1CCC(N2CCCC2)CC1 (racemic)          13%
3        O=C(c1ccc(Br)cc1)N1CCC(N2CCCC2)CC1          30%
4          CN(C)C1CCN(C(=O)c2cccc(Br)c2)CC1     inactive
5  C[N+]1(C2CCN(C(=O)c3cccc(Br)c3)CC2)CCCC1     inactive

Q: State the recorded inhibition for this entry: O=C(c1cccc(Br)c1)N1CCN(C2CCCC2)CC1
Result: inactive

Q: State the recorded inhibition for this entry: O=C(c1ccccc1Br)N1CCC(N2CCCC2)CC1
Result: 29%

Q: State the recorded inhibition for this entry: CNC(=O)c1cccc(C(=O)N2CCC(N3CCCC3)CC2)c1
Result: 32%

Q: State the recorded inhibition for this entry: O=C(c1cccc(Br)c1)N1CC2CCC(C1)C2N1CCCC1 (stereo not drawn)
Result: 16%

Q: State the recorded inhibition for this entry: CN1CCCC1C1CCN(C(=O)c2cccc(Br)c2)CC1 (stereo not drawn)
Result: inactive

Q: State the recorded inhibition for this entry: c1ccc(C(c2ccccc2)N2CCC(N3CCCC3)CC2)cc1
Result: 17%

Q: State the recorded inhibition for this entry: CNC1CCN(C(=O)c2cccc(Br)c2)CC1
Result: inactive

Q: State the recorded inhibition for this entry: O=C(c1cccc(Br)c1)N1CCC(N2CCCCC2)CC1
Result: inactive

Q: State the recorded inhibition for this entry: O=C(c1cccc(Br)c1)N1CCC(N2CCCC2)C1 (stereo not drawn)
Result: inactive

Q: State the recorded inhibition for this entry: O=C(O)c1cccc(C(=O)N2CCC(N3CCCC3)CC2)c1
Result: 26%

Q: State the recorded inhibition for this entry: CC1CCCN1C1CCN(C(=O)c2cccc(Br)c2)CC1 (stereo not drawn)
Result: inactive

Q: State the recorded inhibition for this entry: O=C(c1cccc(Br)c1)N1CCC(N2CC=CC2)CC1
Result: 28%

Q: State the recorded inhibition for this entry: Brc1cccc(CN2CCC(N3CCCC3)CC2)c1
Result: 10%

Q: State the recorded inhibition for this entry: O=C(c1cccc(Br)c1)N1CCCC(N2CCCC2)CC1 (stereo not drawn)
Result: 28%

Q: State the recorded inhibition for this entry: O=C(c1cccc(Br)c1)N1CCC(C2CCCN2)CC1 (stereo not drawn)
Result: inactive

Q: State the recorded inhibition for this entry: O=C(c1ccccc1)N1CCC(N2CCCC2)CC1
Result: 40%

Q: State the recorded inhibition for this entry: O=C(c1cccc(Br)c1)N1CCC(N2CCC2)CC1
Result: 4%

Q: State the recorded inhibition for this entry: O=C(c1cncc(Br)c1)N1CCC(N2CCCC2)CC1
Result: 41%

src = ChEMBL document CHEMBL3217594
